# protocol.notes: Acute Toxicity Test
# Set-up: species or system mouse (8-week ddy)
# experimental.conditions: mouse, in vivo; oral, 0.5% Tween 80 suspension, six 8-week ddy mice, observed for one month
metric: LD50 at 730 h

| structure.notation | observed |
| --- | --- |
| CCC(=O)n1c(SCCOCCSc2nc3ccccc3n2C(=O)CC)nc2ccccc21 | ≥ 5000 mg/kg |
